# Tested on: U2OS
# MEASUREMENT_PROTOCOL: Multiplex assay against U2OS
# Assay type: toxicity, cell-based
# CONDITION_SUMMARY: human, 24 h, 1 µM, compound concentration 1 uM, replicate 1
Listing of entries alongside the reported Population Normal (%).
The answer is to be given in %; state only the numeric part.

Example cases with answers are listed next.
CC(C)OC(=O)N1CCC(Oc2ncnc3c2cnn3-c2ccc(S(C)(=O)=O)cc2F)CC1 ... 93
Cc1ccc(C)c(Oc2ccncc2C(=O)N2CCN(C3CC3)c3ccccc32)c1 ... 96
COC(=O)C1=C(C)NC(C)=C(C(=O)OCCCN2CCC(c3ccccc3)(c3ccccc3)CC2)[C@H]1c1cccc([N+](=O)[O-])c1 [NIGULDIPINE] ... 89
Cc1nc(N2CC[C@H](O)C2)ncc1-c1cc(C(F)(F)F)cc2[nH]ncc12 ... 98
CC(C)CC(=O)Nc1[nH]nc2c1CN(C(=O)C1CCN(C)CC1)C2(C)C [PHA-793887] ... 98
Cc1c[nH]c2nccc(Oc3c(F)cc(Nc4cc(Cl)nc(N)n4)cc3F)c12 [BAY-549] ... 96

Query string: Give me measured Population Normal (%), please, for this compound: Cc1cc(C)c(-n2ccn3nc(-c4cccnc4)cc23)cc1NC(=O)c1cc(C#N)cc(S(F)(F)(F)(F)F)c1 [BAY-826]
Result string: 94

Query string: Indicate its recorded Population Normal (%); the compound in question is `O=c1[nH]c2ccccc2n1C1CCN(Cc2ccc(-c3[nH]c4cc5ncnc5cc4nc3-c3ccccc3)cc2)CC1`
Result string: 94

* * *

Measured Population Hoechst High Intensity Objects (%) values are reported for all entries that follow.
# System: U2OS
# MEASUREMENT_PROTOCOL: Multiplex assay against U2OS
# Type: toxicity, cell-based
# CONDITION_SUMMARY: human, 24 h, 10 µM, compound concentration 10 uM, replicate 2
Numbers only; they are read as %.

Worked examples follow.
CC1=C(C(=O)Nc2cc3cn[nH]c3cc2F)C(c2ccc(C(F)(F)F)cc2)CC(=O)N1 (stereo not given) ... 6
Cl.O=C(O)c1cc(-c2ccc(C3CCNCC3)cc2)c2ccc(-c3ccc(C(F)(F)F)cc3)cc2c1 ... 8
COc1cc(Nc2nccc(-c3cnn4nc(OC)ccc34)n2)cc(C(F)(F)F)c1 ... 29
CC(C)c1noc(N2CCC(COc3ccc(-c4ccc(S(C)(=O)=O)cc4)nc3)CC2)n1 [GSK-1292263] ... 4

Alright, here's another compound for you.
Query string: Please report the measured Population Hoechst High Intensity Objects (%) for Cc1c[nH]c2nccc(Oc3c(F)cc(Nc4cc(Cl)nc(N)n4)cc3F)c12 [BAY-549]
Result string: 5

* * *

# System: Fibroblast
# MEASUREMENT_PROTOCOL: Multiplex assay against human fibroblast
# Type: toxicity, cell-based
# CONDITION_SUMMARY: 48 h, 10 µM, compound concentration 10 uM, replicate 1
MEASUREMENT_KIND: Population Pyknosed Nuclei (%)
The figure you give is taken to be in %; do not add the unit.

Query string: Give the reported value of Population Pyknosed Nuclei (%) for this record: `O=c1cc(N2CCOCC2)oc2c(-c3cccc4c3sc3ccccc34)cccc12`
Result string: 25

Query string: Fill in reported Population Pyknosed Nuclei (%) for this entry: `CC(C)(C)NC[C@H](O)COc1nsnc1N1CCOCC1`
Result string: 19

The values you see were collected from ChEMBL document CHEMBL4689842.
